// provenance: patent US20210024639A1

Target: native human MET on living human cells (human, UniProt P08581 25-1390)
Sequence (P08581 25-1390): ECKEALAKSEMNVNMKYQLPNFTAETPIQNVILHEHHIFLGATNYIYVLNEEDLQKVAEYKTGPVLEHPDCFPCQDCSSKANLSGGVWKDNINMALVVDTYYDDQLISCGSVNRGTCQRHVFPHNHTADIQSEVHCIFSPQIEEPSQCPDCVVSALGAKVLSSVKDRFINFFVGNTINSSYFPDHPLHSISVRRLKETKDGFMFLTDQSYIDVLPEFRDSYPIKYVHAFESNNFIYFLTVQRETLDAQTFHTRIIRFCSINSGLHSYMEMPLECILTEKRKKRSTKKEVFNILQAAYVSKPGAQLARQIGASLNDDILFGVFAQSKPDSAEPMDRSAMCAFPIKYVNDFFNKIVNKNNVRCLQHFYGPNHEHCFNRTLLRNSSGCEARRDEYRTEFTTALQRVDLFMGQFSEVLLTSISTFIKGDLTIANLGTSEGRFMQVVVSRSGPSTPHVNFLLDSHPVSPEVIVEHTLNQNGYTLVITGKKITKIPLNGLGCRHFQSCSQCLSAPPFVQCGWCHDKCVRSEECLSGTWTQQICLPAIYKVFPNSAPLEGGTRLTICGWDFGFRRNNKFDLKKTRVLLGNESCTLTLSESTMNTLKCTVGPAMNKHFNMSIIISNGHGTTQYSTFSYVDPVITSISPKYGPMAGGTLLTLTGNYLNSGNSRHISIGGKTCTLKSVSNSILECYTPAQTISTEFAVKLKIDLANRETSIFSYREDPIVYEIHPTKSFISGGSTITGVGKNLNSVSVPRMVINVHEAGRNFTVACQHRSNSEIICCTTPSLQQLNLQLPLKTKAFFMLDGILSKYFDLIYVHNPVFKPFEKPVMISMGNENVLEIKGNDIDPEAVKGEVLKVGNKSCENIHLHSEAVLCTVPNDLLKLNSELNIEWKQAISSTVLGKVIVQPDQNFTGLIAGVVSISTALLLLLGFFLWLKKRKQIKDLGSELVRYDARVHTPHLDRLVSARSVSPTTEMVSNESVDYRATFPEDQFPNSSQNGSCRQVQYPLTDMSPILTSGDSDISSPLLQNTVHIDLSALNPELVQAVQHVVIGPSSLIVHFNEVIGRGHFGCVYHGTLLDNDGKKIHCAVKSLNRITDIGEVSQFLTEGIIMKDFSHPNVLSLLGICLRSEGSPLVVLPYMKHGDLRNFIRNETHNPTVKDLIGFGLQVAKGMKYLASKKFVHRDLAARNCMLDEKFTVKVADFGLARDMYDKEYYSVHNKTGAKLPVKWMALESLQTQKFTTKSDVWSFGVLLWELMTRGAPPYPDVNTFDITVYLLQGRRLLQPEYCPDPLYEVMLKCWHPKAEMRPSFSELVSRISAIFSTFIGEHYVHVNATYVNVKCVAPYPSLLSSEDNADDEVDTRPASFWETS
Test: cell-based or functional assay
Measure: protection from staurosporine, viability EC50, MCF10A (nM)

>  <Binder>
chimeric llama-human IgG1 mAb 71D4 (antibody, V domains shown) VH: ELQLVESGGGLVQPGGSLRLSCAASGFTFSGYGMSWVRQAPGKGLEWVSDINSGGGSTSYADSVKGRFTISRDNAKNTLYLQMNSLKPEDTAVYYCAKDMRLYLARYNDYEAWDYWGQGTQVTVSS VL: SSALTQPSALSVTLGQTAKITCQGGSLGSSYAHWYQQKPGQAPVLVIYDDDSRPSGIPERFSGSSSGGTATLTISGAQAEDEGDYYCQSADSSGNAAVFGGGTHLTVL

>  <Unit abbreviation>
nM

>  <Value operator>
=

>  <Value>
30.2

$$$$
>  <Binder>
chimeric llama-human IgG1 mAb 71G12 (antibody, V domains shown) VH: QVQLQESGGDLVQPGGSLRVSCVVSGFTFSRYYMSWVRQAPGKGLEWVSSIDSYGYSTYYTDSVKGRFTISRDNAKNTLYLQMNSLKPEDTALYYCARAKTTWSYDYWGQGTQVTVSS VL: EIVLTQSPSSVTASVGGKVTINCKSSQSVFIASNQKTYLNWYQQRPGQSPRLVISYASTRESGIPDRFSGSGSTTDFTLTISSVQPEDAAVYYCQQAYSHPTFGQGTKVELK

>  <Unit abbreviation>
nM

>  <Value operator>
>

>  <Value>
32

$$$$
